assay: TOX21_p53_BLA_p2_viability: Viability Assessment in the Tox21 HCT-116 p53 Agonism Beta-lactamase Assay, Phase 2 (AID 2283591);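 note: compound exposure lasted 16 h at 37 °C; actives lower the ATP signal meaning cytotoxicity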
Records with an inconclusive call do not appear. The source made the active and inactive calls. Rule for the calls: active = hit-call score of the fitted dose curve at least 0.9, where 1 is the maximum; inconclusive = response in the unintended direction; inactive = score below 0.9.
Mark one answer only. Choices: class 1 for active, class 0 for inactive

Nc1nc2c(ncn2CCC(CO)CO)c(=O)[nH]1    class 0

Ask | # outcome recorded in this test, key = CCCCCCCC/C=C\CCCCCCCCCCCC(=O)O
Reply | class 0

Ask | # outcome recorded in this test, key = CCCC(=O)O[C@]1(C(=O)COC(C)=O)CC[C@H]2[C@@H]3C[C@H](F)C4=CC(=O)C=C[C@]4(C)[C@@]3(F)[C@@H](O)C[C@@]21C
Reply | class 0

Ask | # outcome recorded in this test, key = Nc1ccc(S(=O)(=O)Nc2ccc(Cl)nn2)cc1
Reply | class 0

Ask | # outcome recorded in this test, key = CCCCCCCCCCCCCCCCCC(=O)OC[C@@H](O)[C@H]1OC[C@H](O)[C@H]1O
Reply | class 0

Ask | # outcome recorded in this test, key = N/C(=N\N=Cc1ccc(Cl)cc1)NN=Cc1ccc(Cl)cc1
Reply | class 0

Ask | # outcome recorded in this test, key = CCNc1nc(NC(C)CC)nc(OC)n1 (stereo unspecified)
Reply | class 0

Ask | # outcome recorded in this test, key = CSc1ccc(/C=C2/C(C)=C(CC(=O)O)c3cc(F)ccc32)cc1
Reply | class 1

Ask | # outcome recorded in this test, key = C1=CC2C3C=CC(C3)C2C1 (stereo unspecified) (tested in a mixture with another compound)
Reply | class 0

Ask | # outcome recorded in this test, key = COCCOCCOCCOCCO
Reply | class 0

Ask | # outcome recorded in this test, key = CC1(C)S[C@@H]2[C@H](NC(=O)C(N)c3ccccc3)C(=O)N2[C@H]1C(=O)OC1OC(=O)c2ccccc21 (stereo partly specified)
Reply | class 0
